TARGET: T1, murine CD22 protein (ACROBiosystems, SI2-M52Ha) (murine, UniProt P35329 22-708)
T1 construct: extracellular domain; also called murine CD22-ECD; murine CD22-ECD-His
T1 sequence (looked up): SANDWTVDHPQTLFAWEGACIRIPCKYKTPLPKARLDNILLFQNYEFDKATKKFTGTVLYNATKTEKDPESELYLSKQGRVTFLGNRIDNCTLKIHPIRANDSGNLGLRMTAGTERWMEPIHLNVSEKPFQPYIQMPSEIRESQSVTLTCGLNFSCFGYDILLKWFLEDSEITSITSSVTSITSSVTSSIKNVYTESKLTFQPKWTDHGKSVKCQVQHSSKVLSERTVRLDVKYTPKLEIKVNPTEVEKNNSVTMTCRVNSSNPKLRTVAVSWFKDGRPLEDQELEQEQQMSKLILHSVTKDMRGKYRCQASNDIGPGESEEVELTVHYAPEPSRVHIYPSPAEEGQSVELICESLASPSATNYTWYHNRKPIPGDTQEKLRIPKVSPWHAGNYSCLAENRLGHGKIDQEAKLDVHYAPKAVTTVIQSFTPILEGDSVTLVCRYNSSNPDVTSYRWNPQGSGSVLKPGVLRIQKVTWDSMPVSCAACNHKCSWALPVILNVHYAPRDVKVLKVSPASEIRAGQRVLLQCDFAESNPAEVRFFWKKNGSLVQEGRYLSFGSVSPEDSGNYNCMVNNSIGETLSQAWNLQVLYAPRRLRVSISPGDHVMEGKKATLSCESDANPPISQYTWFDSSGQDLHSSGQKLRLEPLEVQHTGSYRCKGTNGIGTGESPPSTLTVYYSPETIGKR
TEST METHOD NOTES: ELISA, coated murine CD22, 0.00001 nM Ab
ASSAY ENDPOINT: OD450

[
  {
    "BINDER": "F1.250.16 human-murine chimeric antibody (antibody, human IgG1, kappa, V domains shown, Chimeric, human IgG1 / kappa; VL tied by name) VH: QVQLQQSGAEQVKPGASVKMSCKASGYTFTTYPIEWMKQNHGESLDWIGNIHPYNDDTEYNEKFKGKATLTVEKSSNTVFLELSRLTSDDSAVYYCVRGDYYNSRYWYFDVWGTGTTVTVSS VL: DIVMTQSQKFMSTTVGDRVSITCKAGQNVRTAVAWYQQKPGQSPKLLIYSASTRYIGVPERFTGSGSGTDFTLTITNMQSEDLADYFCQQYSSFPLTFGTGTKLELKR",
    "ASSAY ENDPOINT": "OD450",
    "RESULT": "0.06 OD450"
  },
  {
    "BINDER": "F1.216.2 human-murine chimeric antibody (antibody, human IgG1, kappa, V domains shown, Chimeric, human IgG1 / kappa) VH: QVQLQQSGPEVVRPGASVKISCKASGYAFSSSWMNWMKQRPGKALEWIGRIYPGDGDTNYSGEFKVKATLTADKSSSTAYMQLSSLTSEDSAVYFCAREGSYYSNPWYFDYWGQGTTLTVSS VL: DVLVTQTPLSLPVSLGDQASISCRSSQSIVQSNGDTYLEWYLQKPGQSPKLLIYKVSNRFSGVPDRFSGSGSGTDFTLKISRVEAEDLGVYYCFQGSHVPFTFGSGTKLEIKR",
    "ASSAY ENDPOINT": "OD450",
    "RESULT": "0.06 OD450"
  },
  {
    "BINDER": "F1.161.7 human-murine chimeric antibody (antibody, human IgG1, kappa, V domains shown, Chimeric, human IgG1 / kappa) VH: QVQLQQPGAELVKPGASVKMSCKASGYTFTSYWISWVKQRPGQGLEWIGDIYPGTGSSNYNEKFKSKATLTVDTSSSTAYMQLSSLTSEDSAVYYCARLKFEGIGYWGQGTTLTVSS VL: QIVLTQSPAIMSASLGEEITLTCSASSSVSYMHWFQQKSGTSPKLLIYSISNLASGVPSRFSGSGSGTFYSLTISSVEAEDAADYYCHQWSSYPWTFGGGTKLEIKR",
    "ASSAY ENDPOINT": "OD450",
    "RESULT": "0.06 OD450"
  }
]
